assay_text: Teratogenic activity
study_conditions: in vivo
property_label: teratogenic potency

Record excerpt, results attached:
Please fill in: teratogenic potency reported for C#CCC(CCCC)C(=O)O (centres unmarked) [2-n-butyl-4-pentynoic acid] = most potent

Please fill in: teratogenic potency reported for C#CCC(CCC)C(=O)O (centres unmarked) [2-n-propyl-4-pentynoic acid] = most potent

Please fill in: teratogenic potency reported for C#CCC(CC(C)C)C(=O)O (centres unmarked) = low

Please fill in: teratogenic potency reported for C#CCC(CCCCC)C(=O)O (centres unmarked) [2-n-pentyl-4-pentynoic acid] = most potent

Let us examine a further case.
Please fill in: teratogenic potency reported for C#CCC(CCCCCC)C(=O)O (racemic) [2-n-hexyl-4-pentynoic acid, (±)-2-(2-propinyl)-Octanoic acid] = most potent
